Reported IC50 values for the following compounds.
Target chain: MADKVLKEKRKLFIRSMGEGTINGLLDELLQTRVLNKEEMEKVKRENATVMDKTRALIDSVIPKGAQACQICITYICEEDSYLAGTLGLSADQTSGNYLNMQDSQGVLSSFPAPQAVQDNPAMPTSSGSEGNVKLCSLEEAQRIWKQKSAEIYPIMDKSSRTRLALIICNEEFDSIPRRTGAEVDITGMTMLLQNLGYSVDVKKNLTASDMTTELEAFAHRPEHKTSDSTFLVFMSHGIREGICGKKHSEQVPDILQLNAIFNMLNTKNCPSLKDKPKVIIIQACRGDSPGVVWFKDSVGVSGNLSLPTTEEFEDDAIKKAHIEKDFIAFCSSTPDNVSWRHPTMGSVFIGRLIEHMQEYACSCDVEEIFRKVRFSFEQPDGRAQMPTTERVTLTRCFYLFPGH
Record the value in nM, omitting the unit from your answer.

Before answering, review these 6 worked examples.
compound	IC50 [nM]
O=C1C[C@H](NC(=O)[C@@H]2CN(C(=O)OCc3ccccc3)C[C@@H]3C/C=C\C[C@H](NC(=O)c4ccccc4)C(=O)N32)C(O)O1 (some centres not stated)	1
O=C1C[C@H](NC(=O)[C@@H]2COC[C@@H]3C/C=C\C[C@H](NC(=O)c4ccccc4Cl)C(=O)N32)C(O)O1 (some centres not stated)	33
O=C1C[C@H](NC(=O)[C@@H]2COC[C@@H]3C/C=C\C[C@H](NC(=O)c4ccccc4)C(=O)N32)C(O)O1 (some centres not stated)	130
O=C1C[C@H](NC(=O)[C@@H]2COC[C@@H]3CCCC[C@H](NC(=O)c4nccc5ccccc45)C(=O)N32)C(O)O1 (some centres not stated)	1
CS(=O)(=O)N1C[C@@H]2CCCC[C@H](NC(=O)c3nccc4ccccc34)C(=O)N2[C@H](C(=O)N[C@H]2CC(=O)OC2O)C1 (some centres not stated)	1
O=C1C[C@H](NC(=O)[C@@H]2CN(C(=O)OCc3ccccc3)C[C@@H]3C/C=C\C[C@H](NC(=O)c4nccc5ccccc45)C(=O)N32)C(O)O1 (some centres not stated)	1

Task: Using the record for O=C1C[C@H](NC(=O)[C@@H]2COC[C@@H]3C/C=C\C[C@H](NC(=O)c4ccc5ccccc5c4)C(=O)N32)C(O)O1 (some centres not stated) , report its IC50.
Output: 3
